Listing of entries alongside the reported pIC50.
molecular target: EGFR L858R (Homo sapiens (Human), UniProt P00533, L858R); assay: Mobility Shift Assay, in vitro enzyme-inhibiting activity, EGFR L858R; type: biochemical; details: Table 5; Km ATP
Sequence (P00533 25-1210 L858R): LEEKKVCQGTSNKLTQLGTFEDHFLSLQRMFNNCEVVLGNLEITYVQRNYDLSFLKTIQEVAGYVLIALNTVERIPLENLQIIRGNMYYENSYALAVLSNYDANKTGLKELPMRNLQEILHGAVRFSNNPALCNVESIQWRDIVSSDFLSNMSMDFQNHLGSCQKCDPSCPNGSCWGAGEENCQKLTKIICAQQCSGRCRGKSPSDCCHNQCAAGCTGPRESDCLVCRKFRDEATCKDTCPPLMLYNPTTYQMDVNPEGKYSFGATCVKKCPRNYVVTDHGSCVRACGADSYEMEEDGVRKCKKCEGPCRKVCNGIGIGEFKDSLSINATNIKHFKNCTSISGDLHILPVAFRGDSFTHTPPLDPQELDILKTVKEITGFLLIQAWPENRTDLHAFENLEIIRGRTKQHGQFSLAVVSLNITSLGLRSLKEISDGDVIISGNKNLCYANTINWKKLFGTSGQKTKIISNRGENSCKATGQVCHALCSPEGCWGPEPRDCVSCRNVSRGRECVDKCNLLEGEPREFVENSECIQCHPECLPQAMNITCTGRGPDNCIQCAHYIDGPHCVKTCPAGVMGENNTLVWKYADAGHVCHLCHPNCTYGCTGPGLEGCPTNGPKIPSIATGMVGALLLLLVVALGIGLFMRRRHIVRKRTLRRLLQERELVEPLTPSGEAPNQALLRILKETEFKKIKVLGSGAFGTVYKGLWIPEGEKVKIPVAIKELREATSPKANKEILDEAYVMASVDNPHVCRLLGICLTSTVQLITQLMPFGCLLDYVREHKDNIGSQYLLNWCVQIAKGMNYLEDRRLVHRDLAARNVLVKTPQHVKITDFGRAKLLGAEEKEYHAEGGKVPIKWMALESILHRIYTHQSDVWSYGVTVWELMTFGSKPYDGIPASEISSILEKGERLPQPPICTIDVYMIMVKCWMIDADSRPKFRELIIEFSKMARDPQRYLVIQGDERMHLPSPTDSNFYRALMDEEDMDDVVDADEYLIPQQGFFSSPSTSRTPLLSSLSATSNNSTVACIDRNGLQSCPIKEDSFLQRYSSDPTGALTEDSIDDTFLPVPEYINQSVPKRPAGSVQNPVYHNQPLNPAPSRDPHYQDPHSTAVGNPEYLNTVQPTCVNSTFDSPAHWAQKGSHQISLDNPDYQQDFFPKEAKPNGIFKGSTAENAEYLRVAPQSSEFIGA
Keep it numeric: pIC50 is minus log10 of the concentration in mol/L.

In the examples that follow, each entry is paired with its recorded pIC50.
C=CC(=O)Nc1cccc(Nc2nc(Nc3ccc(N4CCN(C(C)=O)CC4)cc3OC)ncc2C(F)(F)F)n1 | 7.07
C=CC(=O)Nc1cccc(Nc2nc(Nc3ccc(C4CCN(C(C)=O)CC4)cc3OC)ncc2C(F)(F)F)c1 | 7.04

Form field pIC50, entry C=CC(=O)Nc1cccc(Nc2nc(Nc3ccc(C4=CCN(C(C)=O)CC4)cc3OC)ncc2C(F)(F)F)c1 : 6.81

====

experiment: Pharmacokinetics in dog; assay type: in vivo, male Beagle dog; details: male, plasma; Beagle dog, po, 0.54 mg/kg
Metric: Tmax (min)
Respond with the bare value in min.

Form field Tmax, entry C=CC(=O)Nc1cccc(Nc2nc(Nc3ccc(C4CCN(C(C)=O)CC4)cc3OC)ncc2C(F)(F)F)c1 [Compound 2] : 30

====

assay: Pharmacokinetics in nude mouse; assay type: in vivo; conditions: female, BALB/c nude, plasma, po, 7.6 mg/kg, solid dispersed sample in pH 4.0 buffer, read-out: F (absolute bioavailability)
Metric: bioavailability (%)
Respond with the bare value in %.

Form field bioavailability, entry C=CC(=O)Nc1cccc(Nc2nc(Nc3ccc(C4CCN(S(C)(=O)=O)CC4)cc3OC)ncc2C(F)(F)F)c1 [Compound 27] : 56

====

target: wild-type EGFR (WT EGFR) (Homo sapiens (Human)); assay: Mobility Shift Assay, in vitro enzyme-inhibiting activity, wild-type EGFR; type: biochemical; settings: Table 3; Km ATP
Sequence (P00533 25-1210): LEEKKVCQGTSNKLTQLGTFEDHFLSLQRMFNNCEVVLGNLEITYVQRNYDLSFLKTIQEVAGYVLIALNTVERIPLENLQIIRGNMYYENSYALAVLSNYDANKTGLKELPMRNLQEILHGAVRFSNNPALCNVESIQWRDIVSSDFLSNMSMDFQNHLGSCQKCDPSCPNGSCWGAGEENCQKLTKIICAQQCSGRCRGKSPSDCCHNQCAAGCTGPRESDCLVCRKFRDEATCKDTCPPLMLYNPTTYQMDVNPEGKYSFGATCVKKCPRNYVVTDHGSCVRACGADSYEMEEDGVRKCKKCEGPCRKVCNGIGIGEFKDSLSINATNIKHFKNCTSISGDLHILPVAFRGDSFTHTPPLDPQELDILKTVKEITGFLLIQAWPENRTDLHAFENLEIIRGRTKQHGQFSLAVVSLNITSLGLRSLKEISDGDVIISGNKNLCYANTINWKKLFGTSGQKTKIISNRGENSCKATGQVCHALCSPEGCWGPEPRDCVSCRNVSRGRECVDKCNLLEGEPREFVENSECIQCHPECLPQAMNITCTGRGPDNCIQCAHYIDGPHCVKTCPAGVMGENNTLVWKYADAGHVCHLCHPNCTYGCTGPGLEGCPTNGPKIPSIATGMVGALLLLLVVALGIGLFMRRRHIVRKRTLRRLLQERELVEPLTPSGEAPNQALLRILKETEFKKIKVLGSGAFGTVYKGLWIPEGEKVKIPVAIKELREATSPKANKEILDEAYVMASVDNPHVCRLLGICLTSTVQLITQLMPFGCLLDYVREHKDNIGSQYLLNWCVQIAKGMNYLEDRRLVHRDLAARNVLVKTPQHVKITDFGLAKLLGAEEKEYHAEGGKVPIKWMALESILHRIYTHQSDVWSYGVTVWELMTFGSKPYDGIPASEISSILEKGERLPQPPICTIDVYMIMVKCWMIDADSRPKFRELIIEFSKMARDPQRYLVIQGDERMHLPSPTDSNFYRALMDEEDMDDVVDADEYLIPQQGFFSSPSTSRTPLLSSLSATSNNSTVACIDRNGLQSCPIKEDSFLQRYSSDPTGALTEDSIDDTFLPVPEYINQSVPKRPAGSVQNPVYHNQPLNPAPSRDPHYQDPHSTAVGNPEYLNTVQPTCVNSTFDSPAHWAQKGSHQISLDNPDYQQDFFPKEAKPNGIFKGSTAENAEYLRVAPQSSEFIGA
Metric: IC50 (nM)
Respond with the bare value in nM.

Form field IC50, entry C=CC(=O)Nc1cccc(Nc2nc(Nc3ccc(C4CCN(C(C)=O)CC4)cc3OC)ncc2C(F)(F)F)n1 : 423

====

assay: Pharmacokinetics in nude mouse; assay type: in vivo; conditions: female, BALB/c nude, plasma, iv, 5 mg/kg
Listing of entries alongside the reported clearance.
Respond with the bare value in mL/min/kg.

In the examples that follow, each entry is paired with its recorded clearance.
C=CC(=O)Nc1cccc(Nc2nc(Nc3ccc(C4CCN(C(C)=O)CC4)cc3OC)ncc2C(F)(F)F)c1 | 13.2
C=CC(=O)Nc1cccc(Nc2nc(Nc3ccc(C4CCN(S(C)(=O)=O)CC4)cc3OC)ncc2C(F)(F)F)c1 | 7.17

Let us examine a further case.
Form field clearance, entry C=CC(=O)Nc1cccc(Nc2nc(Nc3ccc(N4CCN(C(C)=O)CC4)cc3OC)ncc2C(F)(F)F)c1 [CO-1686, reference compound] : 20.5

====

biological target: EGFR L858R (Homo sapiens (Human), UniProt P00533, L858R); test: Mobility Shift Assay, in vitro enzyme-inhibiting activity, EGFR L858R; format: biochemical; conditions: Table 8; Km ATP
Listing of entries alongside the reported IC50.
Respond with the bare value in nM.

C=CC(=O)Nc1cccc(Nc2nc(Nc3ccc(N4CCC(N5CCOCC5)CC4)cc3OC)ncc2C(F)(F)F)c1 | 11

Let us examine a further case.
Form field IC50, entry C=CC(=O)Nc1cccc(Nc2nc(Nc3ccc(C4CCN(S(C)(=O)=O)CC4)cc3OC)ncc2C(F)(F)F)c1 : 88
